# System: Plasmodium berghei
# PROTOCOL_DESCRIPTION: Screen against P. berghei liver stage (PbLuc), transformed with Luciferase, at 2uM
# Assay type: functional, HepG2
# APPLIED_CONDITIONS: tested at 2 uM
Screen size: about 68,000 compounds; about 2,700 (4%) showed an effect of 50% or more. Only a selection was taken, and strong results are over-represented in it overall.
ATTRIBUTE_MEASURED: INHIBITION (%)
Give bare numbers, in %.

Sample records with INHIBITION:
{"MOLECULE": "COc1cc(N2CCC3(CCN(Cc4csc(C)n4)C3)CC2)ncn1", "MEASURED_RESULT": 7.76}
{"MOLECULE": "Cc1cccc(N2CCC3(CCCN3Cc3c(C)nn(C)c3C)CC2)n1", "MEASURED_RESULT": -28.5}
{"MOLECULE": "CNc1cccc(C2CCCN(C(=O)c3ccn(C)n3)C2)n1 (stereo not drawn)", "MEASURED_RESULT": 15.64}

Batch request: INHIBITION per item, same order as input.
1. O=C(CC1CC1)N1C[C@@H]2CN(c3ccccc3)C(=O)[C@@H]2C1
2. CC(CO)N(C)C(=O)c1cn(-c2ccc(Br)cc2)cn1 (stereo not drawn)
3. Cc1occc1-c1nc(NC2CCCC2)ncc1-c1ccccn1
4. CCCN(CCOC)C(=O)c1cc(Cn2c(C)nc3ccccc32)[nH]n1
5. CSc1ccc(C)c(C(=O)N2CCCC(n3cncn3)C2)c1 (stereo not drawn)

-- reply
28.2
-33.03
11.97
-8.53
-1.88

---

# Test system: Plasmodium berghei
# PROTOCOL_DESCRIPTION: Screen against P. berghei liver stage (PbLuc), transformed with Luciferase, at 2uM
# Type: functional, HepG2
# APPLIED_CONDITIONS: tested at 2 uM
About 2,700 (4%) of roughly 68,000 compounds showed an effect of 50% or more. The entries come from a sample that favours strong results as a whole.
Give measured INHIBITION for each item. Keep answers brief.
Answer with the figure and its unit, nothing else.

Sample records with INHIBITION:
{"COMPOUND": "CCOC1CCN(CC(=O)Nc2oc(C)c3c(C)n[nH]c(=O)c23)CC1", "ASSAYED_SYSTEM": "Plasmodium berghei", "MEASURED_RESULT": "52.52%"}
{"COMPOUND": "CCCc1cc(N2CCCC2Cn2nc(C)nc2C)n2ncnc2n1 (configuration not stated)", "ASSAYED_SYSTEM": "Plasmodium berghei", "MEASURED_RESULT": "19.39%"}
{"COMPOUND": "Cc1n[nH]c(=O)c2c(NC(=O)CN3CCC(C)CC3)oc(C)c12", "ASSAYED_SYSTEM": "Plasmodium berghei", "MEASURED_RESULT": "26.2%"}
{"COMPOUND": "COCCNc1ccc(CC2CCCN(Cc3c[nH]cn3)C2)nn1 (configuration not stated)", "ASSAYED_SYSTEM": "Plasmodium berghei", "MEASURED_RESULT": "-35.23%"}
{"COMPOUND": "CCC(C)NC(=O)CS(=O)(=O)Cc1cc(C)ccc1C (configuration not stated)", "ASSAYED_SYSTEM": "Plasmodium berghei", "MEASURED_RESULT": "-10.29%"}
{"COMPOUND": "Cc1noc(C)c1C(=O)N1CC[C@H]2C[C@@H](c3nccs3)O[C@@H]2C1", "ASSAYED_SYSTEM": "Plasmodium berghei", "MEASURED_RESULT": "-17.88%"}
{"COMPOUND": "Cc1ccc(CN(C(=O)NC2CCS(=O)(=O)C2)C2CC2)o1 (configuration not stated)", "ASSAYED_SYSTEM": "Plasmodium berghei", "MEASURED_RESULT": "1.88%"}
{"COMPOUND": "COc1ccc(-n2nc(C3CC3)nc2CCn2cnnn2)cc1", "ASSAYED_SYSTEM": "Plasmodium berghei", "MEASURED_RESULT": "-4.15%"}
{"COMPOUND": "CNC(=O)C1(C)CN(c2nnc(C)c3ccccc23)CCO1 (configuration not stated)", "ASSAYED_SYSTEM": "Plasmodium berghei", "MEASURED_RESULT": "31.39%"}
{"COMPOUND": "CN(Cc1ccccc1)C(=O)c1nc(S(C)(=O)=O)n2ccccc12", "ASSAYED_SYSTEM": "Plasmodium berghei", "MEASURED_RESULT": "3.9%"}

Batch request: INHIBITION per item, same order as input.
1. Cc1cccc2c1ccn2CC(=O)NC[C@@H]1CCCN2CCCC[C@H]12
2. OC(CNCCn1cccn1)c1cccc(Br)c1 (configuration not stated)
3. OCc1csc(N2CCCN(Cc3ccc(F)cc3)CC2)n1
4. CC(C)CN1CCN(C(=O)c2ccn(C)c(=O)c2)CC1
5. O=C(Cn1ccc(C(=O)O)n1)Nc1c(Cl)cccc1Cl

-- reply
-7.52%
-69.91%
36.28%
1.36%
25.07%

Batch request: INHIBITION per item, same order as input.
1. COc1ccc(SC(C)C(=O)N2CCC(C(N)=O)CC2)cc1 (configuration not stated)
2. O=C(Cn1cc(C(=O)O)cn1)Nc1c(Cl)cccc1Cl

-- reply
-12.36%
6.26%

---

Give measured INHIBITION for each item. Keep answers brief.
# System: Plasmodium berghei
# PROTOCOL_DESCRIPTION: Screen against P. berghei liver stage (PbLuc), transformed with Luciferase, at 2uM
# Assay type: functional, HepG2
# APPLIED_CONDITIONS: tested at 2 uM
Out of some 68,000 compounds screened, about 2,700 (4%) showed an effect of 50% or more. The sample as a whole holds a higher share of strong results than the screen did.
Answer with the figure and its unit, nothing else.

Sample records with INHIBITION:
{"MOLECULE": "CCc1cc(NCc2cccnc2N2CCCCC2)n2ncnc2n1", "MEASURED_RESULT": "64.9%"}
{"MOLECULE": "Cc1ccc2c(c1)C1(CCNCC1)CN2C(=O)CN(C)C", "MEASURED_RESULT": "15.58%"}

Batch request: INHIBITION per item, same order as input.
1. CS(=O)(=O)N1CCOCC2(CCN(Cc3ccc[nH]3)CC2)C1
2. COc1cccc(C(=O)N2CCC3(CCC(=O)N(C(C)C)C3)CC2)c1C
3. CCOCC1CN(C(=O)Cc2ccsc2)Cc2ccnn2C1 (stereo unspecified)

-- reply
-14.21%
63.37%
21.77%

---

# Test system: Plasmodium berghei
# PROTOCOL_DESCRIPTION: Screen against P. berghei liver stage (PbLuc), transformed with Luciferase, at 2uM
# Type: functional, HepG2
# APPLIED_CONDITIONS: tested at 2 uM
Hit rate of the full screen: of about 68,000 compounds, about 2,700 (4%) showed an effect of 50% or more. What follows is part of a selection rich in strong results, with near analogues and random picks from the rest.
ATTRIBUTE_MEASURED: INHIBITION (%)
One number for each entry, in %.

{"COMPOUND": "CN(CCO)C1CCN(c2ncc3c(n2)CCN3c2ccccc2)CC1", "OUTPUT_UNIT": "%", "INHIBITION": 15.84}
{"COMPOUND": "O=C(Cc1cccs1)N1CCOCC1c1ccccc1 (configuration not stated)", "OUTPUT_UNIT": "%", "INHIBITION": -26.81}
{"COMPOUND": "COCC(=O)N1CCCC1c1cc(Nc2nnc(C)s2)nc(C)n1 (configuration not stated)", "OUTPUT_UNIT": "%", "INHIBITION": 10.43}
{"COMPOUND": "CC(C)OCCNC1(c2ccc(Cl)cc2)CCOCC1", "OUTPUT_UNIT": "%", "INHIBITION": -17.01}
{"COMPOUND": "COc1ccc(CNC(=O)NC2CCN(CC3CCCC3)CC2)cn1", "OUTPUT_UNIT": "%", "INHIBITION": -17.01}

Batch request: INHIBITION per item, same order as input.
1. CCc1nc(CCNS(=O)(=O)c2cccc(C(=O)N(C)CC)c2)cs1
2. COCCNC1(c2ccc(Cl)cc2)CCOCC1
3. NC(=O)C1CCN(C(=O)c2cccn2Cc2cccs2)C1 (configuration not stated)
4. CCN(C)C(=O)c1cccc(S(=O)(=O)NCCc2nc(C)cc(=O)[nH]2)c1

-- reply
[34.18, 60.9, -8.9, 7.83]

Batch request: INHIBITION per item, same order as input.
1. CN(C)S(=O)(=O)N1C[C@H]2CC[C@@H](C1)N(Cc1cccc(C#N)c1)C2
2. CNC(=O)C1CCN(c2ncc3c(n2)CCN3c2ccccc2)C1 (configuration not stated)

-- reply
1. -19.83
2. 51.96

Batch request: INHIBITION per item, same order as input.
1. CNC(=O)c1cn[nH]c1C1(C)CCCN(Cc2ccccn2)C1 (configuration not stated)
2. Cn1ccc(C(=O)NC2CCC23CCN(C(=O)c2cnccn2)CC3)c1 (configuration not stated)
3. O=C(c1ccnnc1)N1CCC2(CC1)CN(c1ccccn1)CCO2
4. CCS(=O)(=O)c1ncc(CN(C)Cc2ccccc2OC)n1CCOC
5. O=S(=O)(c1c(Cl)nc2sccn12)N1CCC2(CCNCC2)C1
6. Cc1ccc(C(=O)N2CCC3(CC2)CN(c2ccccn2)CCO3)cc1

-- reply
19.47
-3.25
-0.91
60.74
27.17
56.71
